Provide the reported TGI of each item.
# Test system: SF-268 CNS
# assay_comment: NCI tumour cell line growth inhibition, 48 h

These recorded examples may help you get a feel for the data.
> print(dat)
                               smiles.input  reported.value
1  NC(=O)C(=CNC(=S)Nc1ccc(Cl)c(Cl)c1)C(N)=O        > 100 µM
2  Nn1c(CCCCCCCCc2nnc(COc3ccccc3)n2N)nnc1COc1ccccc1        > 100 µM

Read the next record carefully.
Consider "Cc1ccc(NCC(=O)N2CC(=O)Nc3ccccc32)cc1" . Its measured TGI is > 100 µM

* * *

# System: HCT-15 colon
# assay_comment: NCI tumour cell line growth inhibition, 48 h
experimental_endpoint: TGI

These recorded examples may help you get a feel for the data.
> print(dat)
                                   compound  experimental.endpoint  reported.value
1  c1ccc(-c2nnc(SCc3c[nH]c4ccccc34)n2-c2ccccc2)cc1                    TGI        > 100 µM
2   Cn1c(=O)c2ccc(-c3ccc(Br)cc3)nc2n(C)c1=O                    TGI        > 100 µM
3  CC1=C(C(=O)Nc2ccc3[nH]ncc3c2)C(c2ccc(Cl)c(Cl)c2)CC(=O)N1 (stereo not given)                    TGI         > 25 µM

Dear colleague, could you send me TGI for each of the items below? Thanks.
1. N#Cc1ccsc1NC(=O)COC(=O)c1cccc(S(=O)(=O)N2CCc3ccccc32)c1
2. CC1=NN2C(c3ccc(C)cc3)=CSC2=NC(C)(C)C1

["> 100 µM", "> 100 µM"]
